Target: SSU72 (Homo sapiens, UniProt Q9NP77)
Construct: made in house; host or cells: E. coli
Sequence (Q9NP77 whole entry, species assumed): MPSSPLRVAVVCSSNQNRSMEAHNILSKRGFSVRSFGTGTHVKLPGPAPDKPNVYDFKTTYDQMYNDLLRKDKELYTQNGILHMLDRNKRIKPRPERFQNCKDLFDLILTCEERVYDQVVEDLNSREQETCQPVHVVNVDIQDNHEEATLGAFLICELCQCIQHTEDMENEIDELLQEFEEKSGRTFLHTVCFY
Assay: Tyrosine phosphatase selectivity (pNPP substrate), SSU72
Format: biochemical
Conditions: selectivity ratio SSU72 over SHP2
Method: This experiment evaluated the selectivity of the disclosed compounds against tyrosine phosphatases, including SHP1, HePTP, Laforin, LMWPTP, LYP, PTP1B, PRL2, SSU72, VHR, FAP1, STEP, CDC14A, CD45, MEG2, and PP5, all expressed and purified from E. coli. Phosphatase activity was measured using p-nitrophenyl phosphate (pNPP) (Fisher Scientific) as the substrate in 50 mM 3,3-dimethylglutaric acid buffer (pH 7.0, containing 1 mM EDTA), with ionic strength adjusted to 0.15 M with NaCl. […]
Metric: IC50PTP/IC50SHP2 SSU72
Give the figure only, with no unit attached.

[[record]]
molecule = "O=C(Nc1ccc(-c2ccsc2)cc1)C(=O)Nc1ccc(-c2cc3ccc(-c4nnn[nH]4)nc3n2C2CCC2)cc1"
metric = "IC50PTP/IC50SHP2 SSU72"
val = 606.8

[[record]]
molecule = "O=C(Nc1ccc(-c2oc3cc(F)c(-c4nnn[nH]4)cc3c2C2CCC2)cc1)C(=O)Nc1ccc(N2CCC3(CCOC3)CC2)cc1"
metric = "IC50PTP/IC50SHP2 SSU72"
val = 1960.8

[[record]]
molecule = "Cn1cc(-c2ccc(NC(=O)C(=O)Nc3ccc(-c4cc5cc(F)c(-c6nnc(C(F)(F)F)[nH]6)cc5n4C4CCC4)cc3)cc2)cn1"
metric = "IC50PTP/IC50SHP2 SSU72"
val = 139.7

[[record]]
molecule = "O=C(Nc1ccc(-c2ccsc2)cc1)C(=O)Nc1ccc(-c2cc3cc(F)c(-c4nnn[nH]4)nc3n2C2CCC2)cc1"
metric = "IC50PTP/IC50SHP2 SSU72"
val = 111.1


So, O=C(Nc1ccc(-c2ccsc2)cc1)C(=O)Nc1ccc(-c2cc3cc(F)c(-c4nnn[nH]4)cc3n2C2CCC2)cc1 ? Its IC50PTP/IC50SHP2 SSU72 was 103.4

Recorded IC50PTP/IC50SHP2 SSU72 (molecule Cn1c(-c2cccc(NC(=O)C(=O)Nc3ccc(-c4ccsc4)cc3)c2)c(I)c2cc(C(=O)O)c(O)cc21 [Example 11a-1, reference compound] ): 12.0

###

Target: VHR (Homo sapiens)
Sequence (P51452 whole entry, species assumed): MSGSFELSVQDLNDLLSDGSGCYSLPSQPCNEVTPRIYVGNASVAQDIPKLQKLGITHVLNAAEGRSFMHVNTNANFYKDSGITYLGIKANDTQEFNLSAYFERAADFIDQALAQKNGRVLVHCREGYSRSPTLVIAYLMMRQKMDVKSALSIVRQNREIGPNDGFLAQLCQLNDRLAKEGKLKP
Recorded pIC50 values for a group of molecules are listed next.
pIC50 here: minus log base 10 of the concentration, concentration in moles per litre.

[[record]]
molecule = "O=C(Nc1ccc(-c2cc3cc(F)c(-c4nnn[nH]4)cc3n2C2CCC2)cc1)C(=O)Nc1ccc(N2CCOCC2)cc1"
val = 5.94


Reported VHR (Homo sapiens) pIC50 for item O=C(Nc1ccc(-c2oc3cc(F)c(-c4nnn[nH]4)cc3c2C2CCC2)cc1)C(=O)Nc1ccc(N2CCC3(CCOC3)CC2)cc1 was 4.05

Item O=C(Nc1ccc(-c2ccsc2)cc1)C(=O)Nc1ccc(-c2cc3cc(F)c(-c4nnn[nH]4)cc3n2C2CCC2)cc1 ; assay system VHR (Homo sapiens); pIC50 reported as 5.35

Measured pIC50 for this entry Cn1c(-c2cccc(NC(=O)C(=O)Nc3ccc(-c4ccsc4)cc3)c2)c(I)c2cc(C(=O)O)c(O)cc21 [Example 11a-1, reference compound] on VHR (Homo sapiens): 5.49

###

Test system: UM-UC-a
Test: CellTiter-Glo cell proliferation inhibition, UM-UC-a
Type: cell-based
Details: UM-UC-a (bladder cancer cell line), 72 hours; read-out: Example IC50 (µM) UM-UC-a
Metric: IC50 (µM)
Write down the numeric answer in µM and omit the unit.

What the record says about O=C(Nc1ccc(-c2csc(CO)c2)cc1)C(=O)Nc1ccc(-c2cc3cc(F)c(-c4nnn[nH]4)cc3n2C2CCC2)cc1 : IC50 is 0.193

###

IC50 listing for selected molecules.
Target: PP5 (Homo sapiens)
Sequence (P53041 1-499): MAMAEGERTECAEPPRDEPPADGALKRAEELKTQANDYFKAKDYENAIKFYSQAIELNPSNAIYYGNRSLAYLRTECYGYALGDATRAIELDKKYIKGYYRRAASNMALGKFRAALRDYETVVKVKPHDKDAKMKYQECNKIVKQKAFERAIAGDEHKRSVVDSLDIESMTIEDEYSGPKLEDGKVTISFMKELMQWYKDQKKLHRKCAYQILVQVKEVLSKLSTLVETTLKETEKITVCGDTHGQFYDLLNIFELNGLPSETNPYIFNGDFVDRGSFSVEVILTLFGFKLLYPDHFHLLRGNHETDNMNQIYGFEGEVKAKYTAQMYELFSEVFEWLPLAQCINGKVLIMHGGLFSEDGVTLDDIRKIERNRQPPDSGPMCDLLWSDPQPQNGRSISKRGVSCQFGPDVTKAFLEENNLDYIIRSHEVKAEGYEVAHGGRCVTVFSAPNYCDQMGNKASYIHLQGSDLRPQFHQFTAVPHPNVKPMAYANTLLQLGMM

Record O=C(Nc1ccc(-c2cc3cc(F)c(-c4nnn[nH]4)cc3n2C2CCC2)cc1)C(=O)Nc1ccc(N2CCOCC2)cc1 has PP5 (Homo sapiens) IC50 equal to > 100 µM

IC50 on PP5 (Homo sapiens) for Cn1cc(-c2ccc(NC(=O)C(=O)Nc3ccc(-c4cc5cc(F)c(-c6nnc(C(F)(F)F)[nH]6)cc5n4C4CCC4)cc3)cc2)cn1 is > 100 µM

Here O=C(Nc1ccc(-c2ccsc2)cc1)C(=O)Nc1ccc(-c2oc3cc(F)c(-c4nnn[nH]4)cc3c2C2CCC2)cc1 was tested on PP5 (Homo sapiens), and its IC50 came to > 50 µM

IC50 on PP5 (Homo sapiens) for O=C(Nc1ccc(-c2ccsc2)cc1)C(=O)Nc1ccc(-c2cc3cnc(-c4nnn[nH]4)nc3n2C2CCC2)cc1 is > 50 µM

Short answer on PP5 (Homo sapiens) for O=C(Nc1ccc(-c2oc3cc(F)c(-c4nnn[nH]4)cc3c2C2CCC2)cc1)C(=O)Nc1ccc(N2CCC3(CCOC3)CC2)cc1 , IC50: > 100 µM

Summary: O=C(Nc1ccc(-c2ccsc2)cc1)C(=O)Nc1ccc(-c2cc3cc(F)c(-c4nnn[nH]4)nc3n2C2CCC2)cc1 , PP5 (Homo sapiens), IC50 = > 50 µM

###

Each entry below carries its recorded IC50PTP/IC50SHP2 STEP.
Molecular target: STEP (Homo sapiens)
Construct: made in house; host or cells: E. coli
Sequence (P54829 whole entry, species assumed): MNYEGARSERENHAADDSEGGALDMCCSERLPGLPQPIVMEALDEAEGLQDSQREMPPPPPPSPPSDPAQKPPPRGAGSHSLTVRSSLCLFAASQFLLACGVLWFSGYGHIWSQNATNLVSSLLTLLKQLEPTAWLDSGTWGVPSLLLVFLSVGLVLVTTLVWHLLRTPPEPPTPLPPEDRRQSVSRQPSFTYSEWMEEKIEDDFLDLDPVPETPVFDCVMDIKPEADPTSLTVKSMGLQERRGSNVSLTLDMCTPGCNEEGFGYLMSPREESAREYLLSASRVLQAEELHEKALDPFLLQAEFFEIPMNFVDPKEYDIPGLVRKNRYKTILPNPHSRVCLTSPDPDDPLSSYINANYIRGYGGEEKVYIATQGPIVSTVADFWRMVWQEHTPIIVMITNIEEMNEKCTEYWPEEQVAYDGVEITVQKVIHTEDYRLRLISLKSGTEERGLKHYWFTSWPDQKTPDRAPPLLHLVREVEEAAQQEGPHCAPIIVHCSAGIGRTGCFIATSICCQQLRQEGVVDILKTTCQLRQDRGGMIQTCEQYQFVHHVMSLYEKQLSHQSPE
Experiment: Tyrosine phosphatase selectivity (pNPP substrate), STEP
Format: biochemical
Settings: selectivity ratio STEP over SHP2
Form: value (number only, do not type unit).

[[record]]
compound = "O=C(Nc1ccc(-c2cc3cc(F)c(-c4nnn[nH]4)cc3n2C2CCC2)cc1)C(=O)Nc1ccc(N2CCC3(CCOC3)CC2)cc1 [Example 67]"
val = 204.1


Value of IC50PTP/IC50SHP2 STEP reported for the compound O=C(Nc1ccc(-c2cc3cc(F)c(-c4nnn[nH]4)cc3n2C2CCC2)cc1)C(=O)Nc1ccc(N2CC3COCC3C2)cc1 (stereo not drawn) [Example 114] is 25.4

GET /value?item= CC1(n2c(-c3ccc(NC(=O)C(=O)Nc4ccc(N5CCC6(CCOC6)CC5)cc4)cc3)cc3cc(F)c(-c4nnn[nH]4)cc32)CCC1 [Example 68] &field=IC50PTP/IC50SHP2 STEP returns 171.5

Form: compound = O=C(Nc1ccc(-c2cc3cc(F)c(-c4nnn[nH]4)cc3n2C2CCC2)cc1)C(=O)Nc1ccc(N2CCOCC2)cc1 [Example 47] ; IC50PTP/IC50SHP2 STEP = 12.2

Lab book: IC50PTP/IC50SHP2 STEP of O=C(Nc1ccc(-c2ccsc2)cc1)C(=O)Nc1ccc(-c2cc3cc(F)c(-c4nnn[nH]4)cc3n2C2CCC2)cc1 [Example 4] noted as 155.2

The recorded IC50PTP/IC50SHP2 STEP for entry Cn1cc(-c2ccc(NC(=O)C(=O)Nc3ccc(-c4cc5cc(F)c(-c6nnc(C(F)(F)F)[nH]6)cc5n4C4CCC4)cc3)cc2)cn1 [Example 124] equals 139.7

###

IC50 listing for selected compounds.
Target: SHP2 enzyme (catalytic domain, amino acid sequence 224-528) (Homo sapiens, UniProt Q06124)
Construct: purchased GenScript
Sequence (Q06124 224-528): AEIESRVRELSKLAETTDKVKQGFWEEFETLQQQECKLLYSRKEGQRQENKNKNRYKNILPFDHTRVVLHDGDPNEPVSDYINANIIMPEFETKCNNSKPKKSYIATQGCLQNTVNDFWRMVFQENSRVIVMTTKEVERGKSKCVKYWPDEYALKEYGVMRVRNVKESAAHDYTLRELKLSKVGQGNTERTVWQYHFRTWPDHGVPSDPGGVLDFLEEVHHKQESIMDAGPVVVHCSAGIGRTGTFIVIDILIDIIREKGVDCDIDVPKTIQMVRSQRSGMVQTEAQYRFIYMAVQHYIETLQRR
Assay: SHP2 enzyme inhibition assay (DiFMUP substrate, fluorescence)
Assay type: biochemical
Details: SHP2 catalytic domain, DiFMUP substrate, 30 min pre-incubation; read-out: S HP2 I C50

[[record]]
chemical_string = "O=C(Nc1ccc(-c2cc3cc(F)c(-c4nnn[nH]4)c(F)c3n2C2CCC2)cc1)C(=O)Nc1ccc(N2CCC3(CCOC3)CC2)cc1"
val = "23 nM"

[[record]]
chemical_string = "O=C(Nc1ccc(-c2ccsc2)cc1)C(=O)Nc1ccc(-c2cc3ccc(-c4cnn[nH]4)cc3n2C2CCC2)cc1"
val = "> 10000 nM"


# next compound below
// O=C(Nc1ccc(N2CCC3(CCOC3)CC2)cc1)C(=O)NC1CCN(c2cc3cc(F)c(-c4nnn[nH]4)cc3n2C2CCC2)CC1 : IC50 value = 291 nM
